# System: Mus musculus
# Measurement notes: Antinociceptive activity in mouse dosed repeated icv injections for 6 days by radiant heat tail-flick test
# Format: functional
# Condition description: time 6 day
Non-standard residues stand in square brackets, D forms with d. Residues, ends and D or L forms follow the SMILES beside them. NMeF = CN[C@@H](Cc1ccccc1)C(=O)O
Recorded metric: ED50 (nmol)
Express it in nmol; write the number only.

| Compound | ED50 [nmol] |
| --- | --- |
| C[C@@H](NC(=O)[C@@H](N)Cc1ccc(O)cc1)C(=O)NCC(=O)N(C)[C@@H](Cc1ccccc1)C(=O)N[C@@H](CCC(N)=O)C(=O)N1CCC[C@H]1C(=O)N[C@@H](CCC(N)=O)C(=O)N[C@@H](CCCNC(=N)N)C(=O)N[C@@H](Cc1ccccc1)C(N)=O (H-Y[dA]G[NMeF]QPQRF-NH2) | 0.3862 |
| CSCC[C@@H](NC(=O)[C@H](Cc1ccccc1)NC(=O)CNC(=O)[C@@H](C)NC(=O)[C@@H](N)Cc1ccc(O)cc1)C(=O)N1CCC[C@H]1C(=O)N[C@@H](CCC(N)=O)C(=O)N[C@@H](CCCNC(=N)N)C(=O)N[C@@H](Cc1ccccc1)C(N)=O (H-Y[dA]GF[dM]PQRF-NH2) | 0.3986 |
| CSCC[C@H](NC(=O)[C@H](Cc1ccccc1)NC(=O)CNC(=O)[C@@H](C)NC(=O)[C@@H](N)Cc1ccc(O)cc1)C(=O)N1CCC[C@H]1C(=O)N[C@@H](CCC(N)=O)C(=O)N[C@@H](CCCNC(=N)N)C(=O)N[C@@H](Cc1ccccc1)C(N)=O (H-Y[dA]GFMPQRF-NH2) | 0.2967 |

Kindly consider the entry below.
Lab note: "CSCC[C@@H](NC(=O)[C@@H](N)Cc1ccc(O)cc1)C(=O)NCC(=O)N[C@@H](Cc1ccccc1)C(=O)N[C@@H](CCC(N)=O)C(=O)N1CCC[C@H]1C(=O)N[C@@H](CCC(N)=O)C(=O)N[C@@H](CCCNC(=N)N)C(=O)N[C@@H](Cc1ccccc1)C(N)=O" gave ED50 of 0.0314

---

# Tested system: Neuropeptide FF receptor 2 (Homo sapiens)
# Sequence (Q9Y5X5 whole entry): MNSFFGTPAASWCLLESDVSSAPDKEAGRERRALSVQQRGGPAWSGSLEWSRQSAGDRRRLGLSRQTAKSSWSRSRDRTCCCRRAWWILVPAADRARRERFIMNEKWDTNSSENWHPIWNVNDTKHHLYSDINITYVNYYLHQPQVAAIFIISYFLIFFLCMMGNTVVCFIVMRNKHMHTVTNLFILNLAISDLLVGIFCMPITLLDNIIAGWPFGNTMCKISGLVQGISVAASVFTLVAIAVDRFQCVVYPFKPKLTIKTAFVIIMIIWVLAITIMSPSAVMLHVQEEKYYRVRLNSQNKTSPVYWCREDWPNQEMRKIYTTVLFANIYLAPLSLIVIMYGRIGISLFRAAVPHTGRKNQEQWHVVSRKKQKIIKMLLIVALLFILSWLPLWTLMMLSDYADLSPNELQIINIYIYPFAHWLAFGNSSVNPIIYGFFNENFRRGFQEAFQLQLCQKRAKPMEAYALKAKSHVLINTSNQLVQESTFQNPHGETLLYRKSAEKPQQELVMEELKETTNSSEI
# Measurement notes: Agonist activity at NPFFR2 (unknown origin) expressed in HEK293-A cells assessed as reduction in forskolin-induced cAMP accumulation incubated for 30 mins by competition PKA binding assay relative to Tyr-D-Ala-Gly-Phe-Gln-Pro-Gln-Arg-Phe-NH2
# Assay type: functional, cell-based
# Condition description: filed as agonist
Non-standard residues stand in square brackets, D forms with d. Residues, ends and D or L forms follow the SMILES beside them. NMeY = CN[C@@H](Cc1ccc(O)cc1)C(=O)O; NMeF = CN[C@@H](Cc1ccccc1)C(=O)O
Recorded metric: Emax (%)
Express it in %; write the number only.

Observe how each entry below is paired with its result.
| Compound | Unit text | Emax |
| --- | --- | --- |
| N=C(N)NCCC[C@H](NC(=O)[C@H](CCC(N)=O)NC(=O)[C@@H]1CCCN1C(=O)[C@H](CCC(N)=O)NC(=O)[C@H](Cc1ccccc1)NC(=O)CNC(=O)[C@@H](CO)NC(=O)[C@@H](N)Cc1ccc(O)cc1)C(=O)N[C@@H](Cc1ccccc1)C(N)=O | % | 63 |
| CC(C)C[C@H](NC(=O)[C@H](Cc1ccccc1)NC(=O)CNC(=O)[C@@H](C)NC(=O)[C@@H](N)Cc1ccc(O)cc1)C(=O)N1CCC[C@H]1C(=O)N[C@@H](CCC(N)=O)C(=O)N[C@@H](CCCNC(=N)N)C(=O)N[C@@H](Cc1ccccc1)C(N)=O (H-Y[dA]GFLPQRF-NH2) | % | 57.3 |
| CSCC[C@H](NC(=O)[C@H](Cc1ccccc1)NC(=O)CNC(=O)[C@@H](C)NC(=O)[C@@H](N)Cc1ccc(O)cc1)C(=O)N1CCC[C@H]1C(=O)N[C@@H](CCC(N)=O)C(=O)N[C@@H](CCCNC(=N)N)C(=O)N[C@@H](Cc1ccccc1)C(N)=O (H-Y[dA]GFMPQRF-NH2) | % | 58.4 |
| CSCC[C@@H](NC(=O)[C@@H](N)Cc1ccc(O)cc1)C(=O)NCC(=O)N[C@@H](Cc1ccccc1)C(=O)N[C@@H](CCC(N)=O)C(=O)N1CCC[C@H]1C(=O)N[C@@H](CCC(N)=O)C(=O)N[C@@H](CCCNC(=N)N)C(=O)N[C@@H](Cc1ccccc1)C(N)=O | % | 57.9 |
| C[C@@H](NC(=O)[C@@H](N)Cc1ccc(O)cc1)C(=O)NCC(=O)N[C@@H](Cc1ccccc1)C(=O)NCC(=O)N1CCC[C@H]1C(=O)N[C@@H](CCC(N)=O)C(=O)N[C@@H](CCCNC(=N)N)C(=O)N[C@@H](Cc1ccccc1)C(N)=O (H-Y[dA]GFGPQRF-NH2) | % | 56.2 |

Let me check: CSCC[C@@H](NC(=O)[C@H](Cc1ccccc1)NC(=O)CNC(=O)[C@@H](C)NC(=O)[C@@H](N)Cc1ccc(O)cc1)C(=O)N1CCC[C@H]1C(=O)N[C@@H](CCC(N)=O)C(=O)N[C@@H](CCCNC(=N)N)C(=O)N[C@@H](Cc1ccccc1)C(N)=O (H-Y[dA]GF[dM]PQRF-NH2) , system Neuropeptide FF receptor 2 (Homo sapiens), measured Emax is 70.2

Let me check: C[C@@H](NC(=O)[C@@H](N)Cc1ccc(O)cc1)C(=O)NCC(=O)N(C)[C@@H](Cc1ccccc1)C(=O)N[C@@H](CCC(N)=O)C(=O)N1CCC[C@H]1C(=O)N[C@@H](CCC(N)=O)C(=O)N[C@@H](CCCNC(=N)N)C(=O)N[C@@H](Cc1ccccc1)C(N)=O (H-Y[dA]G[NMeF]QPQRF-NH2) , system Neuropeptide FF receptor 2 (Homo sapiens), measured Emax is 54.5

Let me check: C[C@@H](NC(=O)[C@@H](N)Cc1ccc(O)cc1)C(=O)NCC(=O)N(C)[C@@H](Cc1ccccc1)C(=O)NCC(=O)N1CCC[C@H]1C(=O)N[C@@H](CCC(N)=O)C(=O)N[C@@H](CCCNC(=N)N)C(=O)N[C@@H](Cc1ccccc1)C(N)=O (H-Y[dA]G[NMeF]GPQRF-NH2) , system Neuropeptide FF receptor 2 (Homo sapiens), measured Emax is 73.3

Let me check: C[C@@H](NC(=O)[C@@H](N)Cc1ccc(O)cc1)C(=O)NCC(=O)N[C@@H](Cc1ccccc1)C(=O)N[C@H](C)C(=O)N1CCC[C@H]1C(=O)N[C@@H](CCC(N)=O)C(=O)N[C@@H](CCCNC(=N)N)C(=O)N[C@@H](Cc1ccccc1)C(N)=O (H-Y[dA]GF[dA]PQRF-NH2) , system Neuropeptide FF receptor 2 (Homo sapiens), measured Emax is 45.9

Let me check: CN[C@@H](Cc1ccc(O)cc1)C(=O)N[C@H](C)C(=O)NCC(=O)N[C@@H](Cc1ccccc1)C(=O)N[C@@H](CCC(N)=O)C(=O)N1CCC[C@H]1C(=O)N[C@@H](CCC(N)=O)C(=O)N[C@@H](CCCNC(=N)N)C(=O)N[C@@H](Cc1ccccc1)C(N)=O (H-[NMeY][dA]GFQPQRF-NH2) , system Neuropeptide FF receptor 2 (Homo sapiens), measured Emax is 49.5

Let me check: C[C@@H](NC(=O)[C@@H](N)Cc1ccc(O)cc1)C(=O)NCC(=O)N[C@@H](Cc1ccccc1)C(=O)N[C@@H](CCC(N)=O)C(=O)N1CCC[C@H]1C(=O)N[C@@H](CCC(N)=O)C(=O)N[C@@H](CCCNC(=N)N)C(=O)N[C@@H](Cc1ccccc1)C(N)=O (H-Y[dA]GFQPQRF-NH2) , system Neuropeptide FF receptor 2 (Homo sapiens), measured Emax is 58.4

This collection of values is drawn from ChEMBL document CHEMBL4715798.
